// values below are reported inhibition at 1 ppm
Test system: pathogenic bacteria causing bacterial wilt in tobacco
TEST_PROTOCOL: whole plant or invertebrate
Format: cell-based, ralstonia
RUN_PARAMETERS: read-out: inhibitory rate

COMPOUND | SYSTEM_NAME | inhibition at 1 ppm
CCOCOC(=O)c1cn(C2CC2)c2cc(OCC)c(F)cc2c1=O [Compound 312] | pathogenic bacteria causing bacterial wilt in tobacco | ≥ 90%
O=C(OCCOC1CC1)c1cn(C2CC2)c2cc(Cl)c(F)cc2c1=O [Compound 160] | pathogenic bacteria causing bacterial wilt in tobacco | ≥ 80%
O=C(OCCO)c1cn(C2CC2)c2cc(F)ccc2c1=O [Compound 194] | pathogenic bacteria causing bacterial wilt in tobacco | ≥ 80%
CCOc1cc2c(cc1F)c(=O)c(C(=O)OCCOC)cn2C1CC1 [Compound 282] | pathogenic bacteria causing bacterial wilt in tobacco | ≥ 90%
COCCOC(=O)c1cn(C2CC2)c2cc(OC)ccc2c1=O [Compound 353] | pathogenic bacteria causing bacterial wilt in tobacco | ≥ 80%
COCCOC(=O)c1cn(C2CC2)c2ccc(F)cc2c1=O [Compound 10] | pathogenic bacteria causing bacterial wilt in tobacco | ≥ 80%
CSc1cc2c(cc1F)c(=O)c(C(=O)OCCO)cn2C1CC1 [Compound 371] | pathogenic bacteria causing bacterial wilt in tobacco | ≥ 90%
COCOC(=O)c1cn(C2CC2)c2cc(Cl)c(F)cc2c1=O [Compound 143] | pathogenic bacteria causing bacterial wilt in tobacco | ≥ 80%
CNc1cc2c(cc1F)c(=O)c(C(=O)OCCO)cn2C1CC1 [Compound 400] | pathogenic bacteria causing bacterial wilt in tobacco | ≥ 90%
COCCOC(=O)c1cn(C2CC2)c2cc(OCC(F)(F)F)c(F)cc2c1=O [Compound 292] | pathogenic bacteria causing bacterial wilt in tobacco | ≥ 90%
O=C(OCCCO)c1cn(C2CC2)c2cc(Cl)c(F)cc2c1=O [Compound 164] | pathogenic bacteria causing bacterial wilt in tobacco | ≥ 90%
O=C(OCCCO)c1cn(C2CC2)c2cc(F)ccc2c1=O [Compound 207] | pathogenic bacteria causing bacterial wilt in tobacco | ≥ 90%
O=C(OCCCO)c1cn(C2CC2)c2cc(OCC(F)(F)F)c(F)cc2c1=O [Compound 329] | pathogenic bacteria causing bacterial wilt in tobacco | ≥ 90%
COCCOC(=O)c1cn(C2CC2)c2cc(N3CCCCC3)c(F)cc2c1=O [Compound 432] | pathogenic bacteria causing bacterial wilt in tobacco | ≥ 90%
CCOc1cc2c(cc1F)c(=O)c(C(=O)OCCOC1CCCC1)cn2C1CC1 [Compound 307] | pathogenic bacteria causing bacterial wilt in tobacco | ≥ 90%
COc1cc2c(cc1F)c(=O)c(C(=O)OCCCO)cn2C1CC1 [Compound 320] | pathogenic bacteria causing bacterial wilt in tobacco | ≥ 90%
CCOc1ccc2c(=O)c(C(=O)OCCOC)cn(C3CC3)c2c1 [Compound 342] | pathogenic bacteria causing bacterial wilt in tobacco | ≥ 90%
COCCCCOC(=O)c1cn(C2CC2)c2cc(Cl)c(F)cc2c1=O [Compound 178] | pathogenic bacteria causing bacterial wilt in tobacco | ≥ 90%
COCCOC(=O)c1cn(C2CC2)c2cc(OC)c(F)cc2c1=O [Compound 281] | pathogenic bacteria causing bacterial wilt in tobacco | ≥ 90%
COCCOC(=O)c1cn(C2CC2)c2cc(OC3CC3)c(F)cc2c1=O [Compound 294] | pathogenic bacteria causing bacterial wilt in tobacco | ≥ 90%
CCOCCOC(=O)c1cn(C2CC2)c2cc(SCC)c(F)cc2c1=O [Compound 397] | pathogenic bacteria causing bacterial wilt in tobacco | ≥ 90%
O=C(OCCCO)c1cn(C2CC2)c2ccc(F)cc2c1=O [Compound 18] | pathogenic bacteria causing bacterial wilt in tobacco | ≥ 80%
COCCCOC(=O)c1cn(C2CC2)c2cc(Cl)c(F)cc2c1=O [Compound 165] | pathogenic bacteria causing bacterial wilt in tobacco | ≥ 90%
CCOc1cc2c(cc1F)c(=O)c(C(=O)OCCCO)cn2C1CC1 [Compound 309] | pathogenic bacteria causing bacterial wilt in tobacco | ≥ 90%
CCN(CC)c1cc2c(cc1F)c(=O)c(C(=O)OCCOC)cn2C1CC1 [Compound 420] | pathogenic bacteria causing bacterial wilt in tobacco | ≥ 90%
CCOCOC(=O)c1cn(C2CC2)c2cc(Cl)c(F)cc2c1=O [Compound 144] | pathogenic bacteria causing bacterial wilt in tobacco | ≥ 80%
CCOc1cc2c(cc1F)c(=O)c(C(=O)OCCOC(C)C)cn2C1CC1 [Compound 300] | pathogenic bacteria causing bacterial wilt in tobacco | ≥ 90%
CCNc1cc2c(cc1F)c(=O)c(C(=O)OCCOC)cn2C1CC1 [Compound 408] | pathogenic bacteria causing bacterial wilt in tobacco | ≥ 90%
CCOCCOC(=O)c1cn(C2CC2)c2cc(OCC(F)(F)F)c(F)cc2c1=O [Compound 335] | pathogenic bacteria causing bacterial wilt in tobacco | ≥ 90%
O=C(OCCO)c1cn(C2CC2)c2cc(OCC(F)(F)F)c(F)cc2c1=O [Compound 275] | pathogenic bacteria causing bacterial wilt in tobacco | ≥ 90%
CCSc1cc2c(cc1F)c(=O)c(C(=O)OCCO)cn2C1CC1 [Compound 372] | pathogenic bacteria causing bacterial wilt in tobacco | ≥ 90%
COCCOC(=O)c1cn(C2CC2)c2cc(SC)c(F)cc2c1=O [Compound 381] | pathogenic bacteria causing bacterial wilt in tobacco | ≥ 90%
CNc1cc2c(cc1F)c(=O)c(C(=O)OCCOC)cn2C1CC1 [Compound 401] | pathogenic bacteria causing bacterial wilt in tobacco | ≥ 90%
COc1cc2c(cc1F)c(=O)c(C(=O)OCCO)cn2C1CC1 [Compound 264] | pathogenic bacteria causing bacterial wilt in tobacco | ≥ 90%
O=C(OCCO)c1cn(C2CC2)c2ccc(Cl)cc2c1=O [Compound 44] | pathogenic bacteria causing bacterial wilt in tobacco | ≥ 80%
CCOCCOC(=O)c1cn(C2CC2)c2cc(OC)c(F)cc2c1=O [Compound 326] | pathogenic bacteria causing bacterial wilt in tobacco | ≥ 90%
